Study Target: Bradykinin-1 receptor (Homo sapiens (Human))
Sequence (P46663 whole entry): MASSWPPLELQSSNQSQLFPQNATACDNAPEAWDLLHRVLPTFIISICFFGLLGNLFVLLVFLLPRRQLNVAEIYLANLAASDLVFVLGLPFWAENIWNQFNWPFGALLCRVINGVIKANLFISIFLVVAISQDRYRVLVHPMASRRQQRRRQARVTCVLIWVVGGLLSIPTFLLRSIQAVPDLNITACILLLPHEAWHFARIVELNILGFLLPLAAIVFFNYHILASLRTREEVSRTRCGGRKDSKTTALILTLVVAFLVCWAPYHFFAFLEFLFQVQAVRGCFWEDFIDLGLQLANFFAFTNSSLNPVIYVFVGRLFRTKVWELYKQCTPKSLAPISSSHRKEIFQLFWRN
Below, each entry is listed with its recorded Ki.
Write the value in nM as a bare number.

Which Ki is listed for COc1cc(C(=O)NC2(C(=O)NC3CSc4cc(-c5cc(Cl)cc(F)c5-c5nnn(C)n5)ccc43)CC2)on1 (racemic) ?
4.4

And the next one, Cn1nnc(-c2c(F)cc(Cl)cc2-c2ccc3c(c2)SCC3NC(=O)C2(N)CC2)n1 (racemic) ?
264

* * *

Record type: Ki measurement. Applies to: Bradykinin-1 receptor (Homo sapiens (Human))
Provide only the numeric value, understood in nM.

Check out these entries, answers already filled in.
Which Ki reading was recorded for the compound Cc1nc(-c2c(F)cc(Cl)cc2-c2ccc3c(c2)SCC3NC(=O)C2(NC(=O)C(F)(F)F)CC2)no1 (racemic) [Example 21] ?
9.5

Entry to check: O=C(NC1(C(=O)NC2CCCc3cc(-c4cc(Cl)cc(Cl)c4OCC(F)F)ccc32)CC1)C(F)(F)F (racemic) [Example 9]
236

Moving on to the next compound: Cc1nc(-c2c(F)cc(Cl)cc2-c2ccc3c(c2)CC[C@@H]3NC(=O)C2(NC(=O)c3ccnnc3)CC2)no1 [Example 27]
3.6

***
Give its Ki value. Item: Cc1nc(-c2c(F)cc(Cl)cc2-c2cnc3c(c2)CCC3NC(=O)C2(NC(=O)c3ccnnc3)CC2)no1 (racemic) [Example 39]
7.5

Would you mind doing Cc1nc(-c2c(F)cc(Cl)cc2-c2cnc3c(c2)CCC3NC(=O)C2(NC(=O)c3ccnnc3)CC2)no1 (single isomer, unassigned) [Example 41] as well?
4

* * *

Study Target: Bradykinin-1 receptor (Homo sapiens (Human))
Assay Explanation: Calcium mobilization assay (FLIPR, Fluo-4) in GeneBLAzer Bradykinin (B1)-NFAT-bla CHO-K1 cells
Format: cell-based
Condition Context: antagonist activity; CHO-K1 cells stably overexpressing the human bradykinin 1 receptor; read-out: Ca mobilization Assay IC50
Observation Type: IC50 (nM)
Respond with the bare value in nM.

These solved cases illustrate the format of a correct answer.
Looking for the measured IC50 of Cn1nnc(-c2c(F)cc(Cl)cc2-c2ccc3c(c2)SCC3NC(=O)C2(NC(=O)c3ccno3)CC2)n1 (racemic) , can you help?
0.5

Next compound: Cc1nc(-c2c(F)cc(Cl)cc2-c2ccc3c(c2)CC[C@@H]3NC(=O)C2(NC(=O)OC(C)(C)C)CC2)no1
332

Same again, this time with COc1cc(C(=O)NC2(C(=O)NC3CCc4cc(-c5cc(Cl)cc(F)c5-c5noc(C)n5)cnc43)CC2)on1 (racemic)
0.2

Kindly consider the entry below.
I am curious: what IC50 value has been reported for Cc1nc(-c2c(F)cc(Cl)cc2-c2ccc3c(c2)OCC3NC(=O)C2(NC(=O)C(F)(F)F)CC2)no1 (racemic) ?
4.5

* * *

Study Target: Bradykinin-1 receptor (Homo sapiens (Human))
Assay Explanation: Calcium mobilization assay (FLIPR, Fluo-4) in GeneBLAzer Bradykinin (B1)-NFAT-bla CHO-K1 cells
Condition Context: antagonist activity; CHO-K1 cells stably overexpressing the human bradykinin 1 receptor; read-out: Ca mobilization Assay IC50
Here the recorded pIC50 is given for each entry.
# pIC50: negative log10 of molar concentration; output just the value

Suppose we examine the compound COc1cc(C(=O)NC2(C(=O)NC3COc4cc(-c5cc(Cl)cc(F)c5-c5noc(C)n5)ccc43)CC2)on1 (racemic) ; what pIC50 value has been reported?
8.40

Now consider Cc1nc(-c2c(F)cc(Cl)cc2-c2ccc3c(c2)CCCC3NC(=O)C2(NC(=O)C(F)(F)F)CC2)no1 (racemic) .
8.40

Record: COc1ncc(C(=O)NC2(C(=O)NC3CCc4cc(-c5cc(Cl)cc(F)c5-c5noc(C)n5)cnc43)CC2)cn1 (racemic)
9.70

Queued: Cn1nnc(-c2c(F)cc(Cl)cc2-c2cnc3c(c2)CCC3NC(=O)C2(NC(=O)C(F)(F)F)CC2)n1 (racemic)
9.30

Can you check COc1cc(C(=O)NC2(C(=O)NC3CCc4cc(-c5cc(Cl)cc(F)c5-c5noc(C)n5)cc(F)c43)CC2)on1 (racemic) next?
9.30

Now try COc1ncc(C(=O)NC2(C(=O)NC3CCc4cc(-c5cc(Cl)cc(F)c5-c5nnn(C)n5)cnc43)CC2)cn1 (racemic) .
9.70

Sourced from patent US8592426B2
